- procedure.text: Lipophilicity of compound, Log D
- Assay type: physicochemical
- experimental.conditions: octanol/water
readout.name: logD
# print the numeric value only

GET /values?readout=logD&item= `CNC(=O)c1nc(-c2cccc(-c3nnn[nH]3)c2)cnc1N`
0.47

====

- procedure.text: Kinetic solubility of compound in PBS at pH 7.4
- Assay type: physicochemical
- experimental.conditions: read-out: Kinetic_solubility
readout.name: solubility kinetic (µM)

# given.smiles, readout.name, unit.abbrev, observed.value
measured = [
    ("CNC(=O)c1nc(-c2ccc(Cl)c(S(=O)(=O)Nc3cccc(F)c3F)c2)cnc1N", "solubility kinetic", "µM", 176),
]

1. CNC(=O)c1nc(-c2ccc(Cl)c(S(=O)(=O)NCC(F)(F)F)c2)cnc1N
2. CNC(=O)c1nc(-c2ccc(Cl)c(S(=O)(=O)Nc3ccccc3Cl)c2)cnc1N
3. CNC(=O)c1nc(-c2cccc(-c3nnn[nH]3)c2)cnc1N
Arrange the 3 compounds by rising solubility kinetic, starting with the smallest. The response must list the labels following the requested ordering.
2, 1, 3

The reported measurements were obtained from ChEMBL document CHEMBL2150966.
